- Tested on: KM12
- Method notes: NCI tumour cell line growth inhibition, 48 h
Activity calls are given as the source filed them. Cut-off read from the data, not from the text of the source: active = GI50 up to about 1.1 µM and inactive = higher.
Quantity name: GI50

Examples from the recorded data:
C=CCC1(c2ccc(OC)cc2)C=CC(=O)CC1 (configuration not stated)    > 100 µM (inactive)
COC(OC)[C@@H]1OC[C@@H](O)[C@@H]1n1cnc2c(N)ncnc21    > 100 µM (inactive)
Cc1ccc(C(=O)O)cc1S(=O)(=O)Nn1cnc2ccc(S(=O)(=O)Nc3ccccc3C(=O)O)cc2c1=O    10.9 µM (inactive)
COc1ccccc1/C=C/c1nc2ccccc2o1    > 10 µM (inactive)
CN1c2ccc(Cl)cc2C(=O)NC1c1ccc([N+](=O)[O-])s1 (configuration not stated)    16.4 µM (inactive)
COC(=O)c1ccc(C)cc1C1CN=NC12Cc1cc(C)ccc1C2=O (configuration not stated)    6.14 µM (inactive)

Proceed to the following item.
What value of GI50 has been recorded for this entry: "Cc1nc2ccc(Cl)cc2c(Cl)c1CCCl" 30.8 µM (inactive)

====

- System: NCI-H460
- Method notes: NCI tumour cell line growth inhibition, 48 h
Activity calls are given as the source filed them. No stated cut-off is given here; in the data, active = GI50 up to about 1.1 µM and inactive = higher.
Quantity name: GI50

Examples from the recorded data:
CC(=O)[C@]12OC(=O)C3=C1[C@H](CC[C@@H]3C)[C@@H](C)C[C@H]2C=C(C)C    8.63 µM (inactive)
COC(=O)[C@]1(c2cc3ccccc3n2S(=O)(=O)c2ccccc2)CC2CN(C(=O)OCc3ccccc3)C1C1OC(C)(C)OC21 (stereo not given in full)    > 100 µM (inactive)
Cc1c(O)c(OC2OC(CO)C(O)C(O)C2O)cc2c1CC[C@@H]1C2(C)C(=O)C[C@]2(C)[C@@H]([C@@](C)(O)C(O)/C=C/C(C)(C)O)[C@H](O)C[C@@]12C (stereo not given in full)    > 100 µM (inactive)
O=C1OC(c2cccc(C(F)(F)F)c2)c2ccc3ccccc3c21 (stereo not given)    > 10 µM (inactive)
CCOc1ccc(NC(=O)CC2SC(Nc3ccc(C)cc3C)=NC2=O)cc1 (stereo not given)    > 100 µM (inactive)

What value of GI50 has been recorded for this entry: CCOc1ccc(NC2=NC(=O)C(CC(=O)Nc3ccccc3[N+](=O)[O-])S2)cc1 (stereo not given) > 100 µM (inactive)

What value of GI50 has been recorded for this entry: "Cc1cccc(Cl)c1NC(=O)c1cccc([N+](=O)[O-])c1O" 29 µM (inactive)

What value of GI50 has been recorded for this entry: O=C(NC1C2CC3CC(C2)CC1C3)c1cc(/C=C/c2ccccc2)nc(S)n1 (stereo not given) > 100 µM (inactive)

What value of GI50 has been recorded for this entry: CCC(C)(O)c1cn(-c2cccc(S(=O)(=O)O)c2)nn1 (stereo not given) > 100 µM (inactive)

What value of GI50 has been recorded for this entry: CC(=O)NC(CC(C)C)C(=O)NC(Cc1ccccc1)C(=S)N1CCCC1 (stereo not given) > 100 µM (inactive)

====

Catalogue of compounds with associated GI50
- Test system: A549
- Method notes: NCI tumour cell line growth inhibition, 48 h
Active and inactive are the calls of the source. Rule as the data show it: active = GI50 up to about 1.1 µM and inactive = higher.

Examples from the recorded data:
Cc1csc(=S)n1OC(=O)NC1CCCCC1    > 73.3 µM (inactive)
CC1(C)SC2C(C(=O)O)N=C(Cc3ccccc3)N2C1C(=O)O (stereo not given)    31.8 µM (inactive)
BrC1=C(Br)C2(SCCS2)[C@H]2C[C@@H]1c1ccccc12    > 54.1 µM (inactive)

Look up GI50 with A549 for this compound: "CO[C@@]12CC(=O)/C(=C(O)\C=C\c3ccccc3)C(=O)[C@]1(OC)Cc1ccccc1O2" 25.7 µM (inactive)

Look up GI50 with A549 for this compound: "O=[N+]([O-])c1ccc(SN=S=NSc2cccc(SN=S=NSc3ccc([N+](=O)[O-])cc3)c2)cc1" 46.5 µM (inactive)

====

- System: HOP-18
- Method notes: NCI tumour cell line growth inhibition, 48 h
Calls of active or inactive are those of the source. No stated cut-off is given here; in the data, active = GI50 up to about 1.1 µM and inactive = higher.
The categories you may choose from are yes (1) = active, no (0) = inactive

COc1ccc(-c2nnc(-c3nsc4ccccc34)o2)cc1    yes (1)
O=C(O)c1ccc(S(=O)(=O)c2ccccc2)c([N+](=O)[O-])c1    no (0)
NC(=O)c1coc(C2OC(CO)C(O)C2O)n1 (stereo unspecified)    no (0)
CSC(=N)NNC(=O)CCC(=O)Nc1ccccc1C(F)(F)F    no (0)
CCCCCCCCCCCCC(CCCCCCCCCCCC)OP(=O)(O)O    no (0)

Shifting focus to the molecule that follows.
Short answer needed: outcome of this test for CCOC(=O)CC1(C(=O)OCC)c2[nH]c3ccccc3c2CCN1Cc1ccccc1 (stereo unspecified) ? no (0)

====

- Tested on: M14
- Method notes: NCI tumour cell line growth inhibition, 48 h
Activity calls are given as the source filed them. No stated cut-off is given here; in the data, active = GI50 up to about 1.1 µM and inactive = higher.
Quantity name: GI50

Examples from the recorded data:
COc1ccc(N[C@H](CSc2ccc(C)cc2)c2ccc(F)cc2)cc1    > 100 µM (inactive)
COc1ccccc1NC(=O)C(=O)Cc1cnc2ccccc2n1    > 100 µM (inactive)
COC(=O)C1=C(C(=O)OC)C2OC1C1C2C2(C)C(C)=C(C)C1(C)[S+]2[O-] (centres undefined)    8.59 µM (inactive)
CSC(=N)NNC(=O)CCC(=O)Nc1ccccc1C(F)(F)F    > 100 µM (inactive)
COc1ccc(-c2onc(-c3c(C)cc(C)cc3C)c2C2=NCCCN2)cc1    21.1 µM (inactive)

What value of GI50 has been recorded for this entry: "Cc1csc(=S)n1OC(=O)NC1CCCCC1" 40.9 µM (inactive)

What value of GI50 has been recorded for this entry: CC12CCC(CC(=O)/C1=C(/Br)I)C2(C)C (centres undefined) 14.4 µM (inactive)

What value of GI50 has been recorded for this entry: "O=[N+]([O-])c1ccc(SN=S=NSc2cccc(SN=S=NSc3ccc([N+](=O)[O-])cc3)c2)cc1" 37 µM (inactive)

What value of GI50 has been recorded for this entry: CCCCCCCCCCCCCCCCC(C(=O)O)C(O)(CC(=O)O)C(=O)O (centres undefined) 19.7 µM (inactive)

====

- System: BT-549
- Method notes: NCI tumour cell line growth inhibition, 48 h
Calls of active or inactive are those of the source. No stated cut-off is given here; in the data, active = GI50 up to about 1.1 µM and inactive = higher.
Quantity name: GI50

Examples from the recorded data:
CC(Oc1ccc(Cl)cc1Cl)C(=O)NN1C(=O)CSC1c1ccc(Cl)cc1 (stereo not given)    43.7 µM (inactive)
COC(=O)C(COC(=O)/C=C/c1ccc(OC(C)=O)c(OC(C)=O)c1)OC(=O)/C=C/c1ccc(OC(C)=O)c(OC(C)=O)c1 (stereo not given)    15.1 µM (inactive)
CC1CCCc2c(-c3ccc(Cl)cc3)nc(N)c(C#N)c21 (stereo not given)    20.2 µM (inactive)
Cc1c(C)c2c(c(N)c1C#N)C(=O)N(OS(=O)(=O)c1ccccc1)C2=O    19.9 µM (inactive)
C[C@H](CC[C@@H](O)C(C)(C)O)[C@H]1CC[C@@]2(C)[C@@H]3CC=C4[C@@H](CC[C@H](O)C4(C)C)[C@]3(C)C(=O)C[C@]12C    23.6 µM (inactive)

Proceed to the following item.
What value of GI50 has been recorded for this entry: "COc1ccc(CCNCCCC2c3ccccc3-c3ccccc32)cc1OC" 20.4 µM (inactive)

====

- Tested on: LOX IMVI
- Method notes: NCI tumour cell line growth inhibition, 48 h
Activity calls are given as the source filed them. No stated cut-off is given here; in the data, active = GI50 up to about 1.1 µM and inactive = higher.
Quantity name: GI50

COC(=O)c1ccc(C)cc1C1CN=NC12Cc1cc(C)ccc1C2=O (stereo not given)    10.4 µM (inactive)

What value of GI50 has been recorded for this entry: CN1c2ccc(Cl)cc2C(=O)NC1c1ccc([N+](=O)[O-])s1 (stereo not given) 14.5 µM (inactive)

What value of GI50 has been recorded for this entry: "O=C1c2ccccc2CN1c1ccc(OCCN2CCCCC2)cc1" > 10 µM (inactive)

====

- Test system: CAKI-1
- Method notes: NCI tumour cell line growth inhibition, 48 h
The source made the active and inactive calls. No stated cut-off is given here; in the data, active = GI50 up to about 1.1 µM and inactive = higher.
Quantity name: GI50

Examples from the recorded data:
CS/C(=N\Nc1cnc2ccccc2n1)NS(=O)(=O)c1cc(C)c(Cl)cc1Cl    53.5 µM (inactive)
O=C(O)c1cc(Cl)cc2c1NC1(N2)C(=O)Nc2ccccc21 (configuration not stated)    > 100 µM (inactive)
Cn1cc(NC(=O)c2cc(NC(=O)CCCCCCCCC(=O)Nc3cc(C(=O)Nc4cc(C(=O)NCCC(N)N)n(C)c4)n(C)c3)cn2C)cc1C(=O)NCCC(=N)N    22.5 µM (inactive)

What value of GI50 has been recorded for this entry: "CC1=CC(=O)/C(=C/Nc2nc(-c3cccc([N+](=O)[O-])c3)cs2)C(=O)O1" 24.8 µM (inactive)

What value of GI50 has been recorded for this entry: "C=CCn1c(=O)c(C)cn(/C(=C/C(=O)OCC)C(=O)OCC)c1=O" 1.85 µM (inactive)

What value of GI50 has been recorded for this entry: "CC1=NN2C(=O)CC(=O)N=C2S1" > 100 µM (inactive)

What value of GI50 has been recorded for this entry: "Nc1nc(-c2ccccc2)nc2c1[n+]([O-])c1ccccc1[n+]2[O-]" > 100 µM (inactive)
